Biological target: CDK2 (Homo sapiens, UniProt P24941)
Construct: endogenous in cells; host or cells: OVCAR3 cells
Test: Phospho-RB measurement in OVCAR3 cells (HTRF phospho-RB cellular kit)
Format: cell-based
Details: inhibition of RB phosphorylation at S807/811 (HTRF, TR-FRET ratio 665/620), 24 h compound treatment, 0.3 to 10,000 nM
pIC50: −log10 of the molar value.
MEASUREMENT_KIND: pIC50

>>> reading("CN(C)CCN(C)S(=O)(=O)N1CCC(Nc2nccc(-c3sc(C(C)(C)C)nc3-c3cccc(NS(=O)(=O)N4Cc5cccnc5C4)c3F)n2)CC1 [Example 121]")
6.58
>>> reading("CC(C)(C)c1nc(-c2cccc(NS(=O)(=O)N3Cc4cccc(C(F)(F)F)c4C3)c2F)c(-c2ccnc(NC3CC4(C3)CS(=O)(=O)C4)n2)s1 [Example 201]")
7.12
>>> reading("CC(C)(C)c1nc(-c2cccc(NS(=O)(=O)N3Cc4ccncc4C3)c2F)c(-c2ccnc(NC3CCN(S(C)(=O)=O)CC3)n2)s1 [Example 103]")
6.85

A. CN(C)CCN(C)S(=O)(=O)N1CCC(Nc2nccc(-c3sc(C(C)(C)C)nc3-c3cccc(NS(=O)(=O)N4Cc5ccncc5C4)c3F)n2)CC1 [Example 157]
B. CN(C)CCN(C)S(=O)(=O)N1CCC(Nc2nccc(-c3sc(C(C)(C)C)nc3-c3cccc(NS(=O)(=O)N4CCc5ccc(C#N)cc54)c3F)n2)CC1 [Example 122]
C. CN1CCN(c2ccc(Nc3nccc(-c4sc(C(C)(C)C)nc4-c4cccc(NS(=O)(=O)N5CCc6ccc(C#N)cc65)c4F)n3)cc2)CC1 [Example 249]
Hi! Can you put these in order of pIC50, lowest number first? I would appreciate it if you listed the labels in the requested order.
C, A, B
(C: 6.16, A: 6.72, B: 7.27)
